Measured values drawn from PubChem BioAssay AID1159580 for this set.

assay: chemical genetic growth profiling, strain panel (AID 1159580);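 also: tested at 20 µM; growth read once vehicle control cultures reached saturation at 30 °C; lower values mean less growth of the strain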; details: S. cerevisiae deletion strains, growth OD, locus YBR171W, strain sec66, stronger effect = lower value
Out of some 5,500 compounds screened, about 2,000 (36%) were called active. Inconclusive results (about 18%) are left out. Some of the results follow.
# note: exactly 1 is not below, so it is no; use yes for normalized growth strictly under it

Query :: Please indicate whether the reported normalized growth of CC(=O)[C@H]1CCC2C3CC=C4C[C@@H](OC(=O)CCC(=O)O)CC[C@]4(C)C3CC[C@@]21C (stereo partly drawn) is strictly below 1.
Result :: yes

Query :: Ok, now C/C(=C\C(=O)OCCCCCCCCC(=O)O)C[C@@H]1OC[C@H](C[C@@H]2O[C@H]2[C@@H](C)[C@H](C)O)[C@@H](O)[C@H]1O
Result :: yes

Query :: Ok, now CCC(CCC(C)[C@H]1CCC2C3CC=C4C[C@@H](O)CC[C@]4(C)C3CC[C@@]21C)C(C)C (stereo partly drawn)
Result :: no

Query :: Ok, now COc1ccc(-c2coc3cc(OC(C)=O)cc(OC(C)=O)c3c2=O)cc1
Result :: yes

Query :: Ok, now CC(=O)OCC(=O)[C@@]1(O)CCC2C3CC[C@@H]4C[C@H](O)CC[C@]4(C)C3C(=O)C[C@@]21C (stereo partly drawn)
Result :: no
